Molecular target: Transforming acidic coiled-coil-containing protein 3 (Homo sapiens) (UniProt Q9Y6A5)
Assay: inhibition of ARNT PAS-B/TACC3 complex formation – biochemical, AlphaScreen, cherry-picked samples, confirmation (AID 651703);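 also: TACC3 partner is the GST-tagged E629A mutant dimer; hits lower the signal meaning they disrupt ARNT binding to TACC3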
Details: AlphaScreen His-ARNT PAS-B / GST-TACC3 binding, luminescence
Could you please report measured AC50 for the items listed next?

Req: Given "O=C(CNCc1ccccn1)Nc1ccc([N+](=O)[O-])cc1C(=O)Nc1ccccc1F" , state its recorded AC50.
Resp: 3.05 µM

Req: Now consider "CN(C)c1nc(-c2ccccn2)nnc1-c1ccccc1" and answer again.
Resp: < 0.5 µM

Req: Now consider "O=C(Oc1c(CN2CCOCC2)cc(Cl)c2cccnc12)c1ccccc1Br" and answer again.
Resp: 10.3 µM

Req: Now consider "Cc1ccc(C(=O)Nc2nc(-c3ccccn3)cs2)cc1S(=O)(=O)N1CCOCC1" and answer again.
Resp: 2.37 µM

Req: Now consider CCC(C)c1c(N)n(S(=O)(=O)c2ccc(C)cc2)oc1=O (configuration not stated) and answer again.
Resp: 44.1 µM

Req: Now consider "CCOc1ccc2c(c1)c(N=NC(=N)N)c(O)n2C" and answer again.
Resp: 53.9 µM

Req: Now consider CCC(=O)NC(c1ccc(C)cc1)c1cc([N+](=O)[O-])c2cccnc2c1O (configuration not stated) and answer again.
Resp: 3.54 µM

Req: Now consider COC(=O)C1=COC(C)C2CN3CCc4c([nH]c5cc(OC)c(OC)cc45)C3CC12 (configuration not stated) and answer again.
Resp: 67.6 µM

Req: Now consider "N/C(=N\OC(=O)Cc1ccc([N+](=O)[O-])cc1)c1ccccn1" and answer again.
Resp: 21.5 µM

Req: Now consider "Oc1c(Cl)cc(CN2CCOCC2)c2cccnc12" and answer again.
Resp: 1.15 µM

Req: Now consider "COc1cc(NS(=O)(=O)c2ccc(Nc3nc(-c4ccccn4)cs3)cc2)nc(OC)n1" and answer again.
Resp: 17.3 µM

Req: Now consider "O=C(CSc1nnc(-c2ccccn2)o1)Nc1ccccc1F" and answer again.
Resp: 13 µM

Req: Now consider "c1ccc(-c2cn(C[C@H]3CC[C@@H]([C@@H]4CC[C@H](Cn5cc(-c6ccccn6)nn5)O4)O3)nn2)nc1" and answer again.
Resp: 0.659 µM

Req: Now consider "O=C(COc1ccc(Cl)cc1)Nc1nnc(-c2ccco2)o1" and answer again.
Resp: 19.6 µM

Req: Now consider "O=C(Nc1nnc(-c2ccncc2)o1)c1ccccc1" and answer again.
Resp: 18.8 µM

Req: Now consider "O=C(N[C@@H]1CC[C@H](CCn2cc(-c3ccccn3)nn2)O[C@@H]1CO)c1ccccc1" and answer again.
Resp: 20.7 µM

Req: Now consider Cc1cc(NC(c2ccc(Cl)cc2)c2ccc3cccnc3c2O)no1 (configuration not stated) and answer again.
Resp: 10.2 µM

Req: Now consider "c1ccc(-c2nnc(Nc3nc(-c4ccccn4)nnc3-c3ccccc3)s2)cc1" and answer again.
Resp: 1.74 µM

Req: Now consider "O=C(CSc1cccc2cccnc12)N1CCCC1" and answer again.
Resp: 3.28 µM

Req: Now consider "COc1ccc(C(=O)Oc2cccc3cccnc23)cc1[N+](=O)[O-]" and answer again.
Resp: 15 µM

Req: Now consider O=C(NCCCn1ccnc1)C(=O)NCC1OCCN1S(=O)(=O)c1ccccc1 (configuration not stated) and answer again.
Resp: 6.92 µM

Req: Now consider "c1ccc(CSc2ccc(-c3ccccn3)nn2)nc1" and answer again.
Resp: 0.895 µM

====

Biological target: Transforming acidic coiled-coil-containing protein 3 (Homo sapiens) (UniProt Q9Y6A5)
Assay: inhibition of ARNT PAS-B/TACC3 complex formation – biochemical, AlphaScreen, cherry-picked samples, confirmation (AID 651703);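 also: TACC3 partner is the GST-tagged E629A mutant dimer; hits lower the signal meaning they disrupt ARNT binding to TACC3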
Settings: AlphaScreen His-ARNT PAS-B / GST-TACC3 binding, luminescence
Readout kind: AC50

Req: Given "CCO/C=C1/C(=O)N(Cc2ccccc2)C(=O)c2ccccc21" , state its recorded AC50.
Resp: 29 µM

Req: Now consider "O=C(Nc1nnc(-c2ccco2)o1)c1ccc(S(=O)(=O)N2CCOCC2)cc1" and answer again.
Resp: 36.1 µM

Req: Now consider "Oc1ccc(/C=N/Nc2ncc(Br)cn2)c(O)c1" and answer again.
Resp: 6.19 µM

Req: Now consider "N/C(=N\OS(=O)(=O)c1ccc(Cl)cc1)c1ccccn1" and answer again.
Resp: 22.5 µM

Req: Now consider "O=C(Nc1ccc(Cl)cc1)O/N=C(\c1ccccc1)c1ccccn1" and answer again.
Resp: 17.6 µM

Req: Now consider "O=c1[nH]c(-c2ccccn2)nc2ccccc12" and answer again.
Resp: 7.86 µM

Req: Now consider "CCc1cc2c(=O)[nH]c(-c3ccccn3)nc2s1" and answer again.
Resp: 2.86 µM

Req: Now consider "C[C@@H]1CN([C@H](C)CO)C(=O)Cc2cc(N(C)C)ccc2O[C@H]1CN(C)Cc1ccc(Oc2ccccc2)cc1" and answer again.
Resp: 27.5 µM

Req: Now consider "C[C@H](Nc1nc(-c2ccccn2)nnc1-c1ccccc1)C1CCCCC1" and answer again.
Resp: 0.53 µM

Req: Now consider "Nc1[nH]c(=O)nc(Nc2ccccc2)c1N=O" and answer again.
Resp: 21.2 µM

Req: Now consider "c1ccc(CCNc2nc(-c3ccccn3)nnc2-c2ccccc2)cc1" and answer again.
Resp: 0.513 µM

====

Biological target: Transforming acidic coiled-coil-containing protein 3 (Homo sapiens) (UniProt Q9Y6A5)
Experiment: inhibition of ARNT PAS-B/TACC3 complex formation – biochemical, AlphaScreen, cherry-picked samples, confirmation (AID 651703);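 also: TACC3 partner is the GST-tagged E629A mutant dimer; hits lower the signal meaning they disrupt ARNT binding to TACC3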
Settings: AlphaScreen His-ARNT PAS-B / GST-TACC3 binding, luminescence
Readout kind: AC50

Req: Given CCC(=O)NC(c1ccc(C)cc1)c1ccc2cccnc2c1O (stereo not given) , state its recorded AC50.
Resp: 4.71 µM

Req: Now consider "Cc1nnc(NC(=O)C2CCN(S(=O)(=O)c3cc([N+](=O)[O-])ccc3Cl)CC2)o1" and answer again.
Resp: 21.9 µM

Req: Now consider "Cc1[nH][nH]c(=O)c1C(c1c(C)[nH][nH]c1=O)c1cn(Cc2cccc3ccccc23)c2ccccc12" and answer again.
Resp: 19.9 µM

Req: Now consider "Cc1nc(Nc2ccc(C(=O)O)cc2)nc(Nc2ccc(C(=O)O)cc2)c1[N+](=O)[O-]" and answer again.
Resp: 22.1 µM

Req: Now consider CC(=O)NC(c1cc(Cl)c2cccnc2c1O)C(C)C (stereo not given) and answer again.
Resp: 1.47 µM

Req: Now consider COc1ccc(C2c3ccc(O)cc3Oc3ncn4nc(-c5ccccn5)nc4c32)cc1OC (stereo not given) and answer again.
Resp: 52.5 µM

Req: Now consider "CNc1nc(-c2ccccn2)nnc1-c1ccccc1" and answer again.
Resp: < 0.5 µM

Req: Now consider "COCc1cc(=O)[nH]c(Nc2nc3ccc(C)cc3o2)n1" and answer again.
Resp: 7.59 µM

Req: Now consider "O=C(N[C@H]1CC[C@H](CCn2cc(-c3ccccn3)nn2)O[C@@H]1CO)c1ccc(F)cc1" and answer again.
Resp: 23.1 µM

Req: Now consider "CCc1cc(C(=O)Nc2nc(-c3ccccn3)cs2)sc1C" and answer again.
Resp: 22.9 µM

====

Target: UniProt Q9Y6A5
Experiment: inhibition of ARNT PAS-B/TACC3 complex formation – biochemical, AlphaScreen, cherry-picked samples, confirmation (AID 651703);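 also: TACC3 partner is the GST-tagged E629A mutant dimer; hits lower the signal meaning they disrupt ARNT binding to TACC3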
Details: AlphaScreen His-ARNT PAS-B / GST-TACC3 binding, luminescence
Readout kind: AC50

Req: Given "CCCCCOc1ccc(NC(=O)CSc2cccc3cccnc23)cc1" , state its recorded AC50.
Resp: 9.17 µM

Req: Now consider "Cc1cccc(Nc2nc(-c3ccccn3)nnc2-c2ccccc2)n1" and answer again.
Resp: < 0.5 µM

Req: Now consider "N#Cc1ccc(OCC(=O)NCCCn2ccnc2)cc1" and answer again.
Resp: 8.65 µM

Req: Now consider "O=C(N[C@@H]1CC[C@@H](CCn2cc(-c3ccccn3)nn2)O[C@H]1CO)c1ccccc1" and answer again.
Resp: 9.23 µM

Req: Now consider "COc1c(O)cccc1/C=N/NC(=O)Cn1ccnc1C" and answer again.
Resp: 8.02 µM

Req: Now consider "NS(=O)(=O)c1ccc(N=Nc2c[nH]c(=O)c(O)c2)cc1" and answer again.
Resp: 57.9 µM

Req: Now consider CCOC(=O)C(NCc1ccccn1)(NC(=O)c1cccnc1)C(F)(F)F (configuration not stated) and answer again.
Resp: 29.8 µM

Req: Now consider "Cc1cccc(CSc2cccc3cccnc23)c1" and answer again.
Resp: 1.79 µM

Req: Now consider "O=c1[nH]c(O)c(N=Nc2cc([N+](=O)[O-])ccc2O)c(=O)[nH]1" and answer again.
Resp: 25.5 µM

Req: Now consider "OCC1CCN(Cc2ccc(O)c3ncccc23)CC1" and answer again.
Resp: < 0.5 µM

Req: Now consider "O=C(Nc1nc(-c2ccccn2)cs1)C1CCCC1" and answer again.
Resp: 15.5 µM

Req: Now consider "O=c1cc(C(F)(F)F)nc(-n2[nH]c3c(c2=O)CCCC3)[nH]1" and answer again.
Resp: 28 µM
